Measured values drawn from patent US8586579B2 for this set.

# target of assay: human 5-HT2A receptor (Homo sapiens (Human))
# Sequence (P28223 whole entry): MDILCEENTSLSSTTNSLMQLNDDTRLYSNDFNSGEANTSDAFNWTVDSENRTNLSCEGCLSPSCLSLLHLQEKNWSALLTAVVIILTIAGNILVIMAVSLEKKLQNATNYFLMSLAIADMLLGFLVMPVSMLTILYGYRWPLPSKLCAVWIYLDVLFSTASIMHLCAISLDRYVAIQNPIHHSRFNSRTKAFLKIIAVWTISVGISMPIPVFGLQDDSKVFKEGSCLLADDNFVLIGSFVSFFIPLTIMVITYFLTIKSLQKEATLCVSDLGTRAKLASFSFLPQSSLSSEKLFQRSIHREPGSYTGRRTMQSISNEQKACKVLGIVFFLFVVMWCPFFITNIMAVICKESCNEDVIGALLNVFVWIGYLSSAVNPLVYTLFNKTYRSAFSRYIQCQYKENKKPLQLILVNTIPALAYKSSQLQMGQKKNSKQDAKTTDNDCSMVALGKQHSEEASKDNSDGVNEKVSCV
# assay notes: Radioligand binding assay, [3H]-ketanserin, human 5-HT2A receptor
# condition details: membranes of HEK293 EBNA cells expressing human 5-HT2A; 1.1 nM [3H]-ketanserin
# Description: HEK293 EBNA cells were transiently transfected with expression plasmids encoding for the human D2 or D3 or for the human 5-HT2A receptor, respectively. […] The protein content of this homogenate was determined with the Bio-Rad (Bradford) Protein Assay (Biorad Laboratories GmbH, München, Germany) according to the instructions of the manufacturer using gamma globulin as the standard. […] The binding affinity (Ki) of the compounds was determined using radioligand binding. […]
Friendly reminder: Ki below 10 nM is label 1, at or above is label 0.

Some solved entries appear below for comparison.
O=C(N[C@H]1CC[C@H](CCN2CCN(c3nccc4c3CCO4)CC2)CC1)c1ccc(-c2ccccc2)cc1 [Example 134]
label 0
Cc1nc(-c2cccc(C(=O)N[C@H]3CC[C@H](CCN4CCN(c5nccc6c5CCO6)CC4)CC3)c2)no1 [Example 127]
label 0
CO[C@@H]1CC[C@@H](CC(=O)N[C@H]2CC[C@H](CCN3CCN(c4nccc5sccc45)CC3)CC2)C1 [Example 25]
label 1
Cc1cc(CC(=O)N[C@H]2CC[C@H](CCN3CCN(c4nccc5c4CCO5)CC3)CC2)on1 [Example 84]
label 0
CO[C@H]1CC[C@H](CC(=O)N[C@H]2CC[C@H](CCN3CCN(c4nccc5sccc45)CC3)CC2)CC1 [Example 20]
label 1

Prompt: Ki under 10 nM? Item: CO[C@@H](C)C(=O)N[C@H]1CC[C@H](CCN2CCN(c3nccc4c3CCO4)CC2)CC1 [Example 137]
Completion: label 0

Prompt: Ki under 10 nM? Item: CCOCC(=O)N[C@H]1CC[C@H](CCN2CCN(c3nccc4occc34)CC2)CC1 [Example 12]
Completion: label 1

Prompt: Ki under 10 nM? Item: CO[C@H]1CC[C@H](CC(=O)N[C@H]2CC[C@H](CCN3CCN(c4nccc5c4CCO5)CC3)CC2)CC1 [Example 65]
Completion: label 0

Prompt: Ki under 10 nM? Item: O=C(N[C@H]1CC[C@H](CCN2CCN(c3nccc4c3CCO4)CC2)CC1)c1ccc2ncccc2c1 [Example 128]
Completion: label 0
